For each of the compounds below, state its IC50.
Assay system: human TrkA (Homo sapiens (Human), UniProt P04629)
Sequence (P04629 33-796): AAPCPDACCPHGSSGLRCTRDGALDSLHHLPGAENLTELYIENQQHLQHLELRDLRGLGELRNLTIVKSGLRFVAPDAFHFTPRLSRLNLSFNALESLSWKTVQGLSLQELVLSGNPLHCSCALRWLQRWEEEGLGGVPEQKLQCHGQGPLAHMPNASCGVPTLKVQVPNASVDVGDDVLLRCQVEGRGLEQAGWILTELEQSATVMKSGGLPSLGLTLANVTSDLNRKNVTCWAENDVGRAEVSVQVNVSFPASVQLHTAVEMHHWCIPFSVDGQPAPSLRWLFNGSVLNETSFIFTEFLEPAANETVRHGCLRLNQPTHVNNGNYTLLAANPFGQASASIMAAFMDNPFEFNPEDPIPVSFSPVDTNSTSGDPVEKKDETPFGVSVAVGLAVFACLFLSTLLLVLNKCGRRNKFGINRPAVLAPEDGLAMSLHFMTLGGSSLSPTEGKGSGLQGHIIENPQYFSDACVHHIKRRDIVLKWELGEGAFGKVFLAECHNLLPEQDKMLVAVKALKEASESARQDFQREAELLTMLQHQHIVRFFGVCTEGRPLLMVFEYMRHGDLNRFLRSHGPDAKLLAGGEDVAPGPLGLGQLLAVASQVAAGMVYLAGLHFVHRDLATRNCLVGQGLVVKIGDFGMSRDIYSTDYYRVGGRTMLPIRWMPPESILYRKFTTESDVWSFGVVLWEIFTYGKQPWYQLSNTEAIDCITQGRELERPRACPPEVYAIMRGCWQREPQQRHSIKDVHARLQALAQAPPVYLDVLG
Protocol: Measurement of TrkA kinase-inhibiting activity using human TrkA-expressing cells
Format: cell-based
Recorded conditions: CHO-K1 cells expressing human TrkA and NFAT-bla; NGF 50 ng/ml; TR-FRET reporter
Kindly provide the numeric value in µM only, without the unit symbol.

input: Value lookup for IC50; key = CS(=O)(=O)c1ccc(C(F)(F)F)cc1NC(=O)Nc1cnc(Oc2ccc(-c3cc(C(F)(F)F)cnc3N)cc2)nc1
output: 0.0008

input: Recorded IC50 of O=C(Nc1cnc(Oc2ccc(-c3cnc4ccccn34)cc2)nc1)Nc1cc(C(F)(F)F)ccc1-n1cccn1 , please.
output: 0.001

input: Recorded IC50 of CS(=O)(=O)c1ccc(C(F)(F)F)cc1NC(=O)Nc1cnc(Oc2ccc(-c3cc(Cl)cnc3N)cc2)nc1 , please.
output: 0.0005

input: I would be grateful if you could share the reported IC50 for O=C(Nc1cnc(Oc2ccc(-c3cnc4cnccn34)cc2)nc1)Nc1cc(C(F)(F)F)ccc1-c1cccnc1 .
output: 0.001

input: I am curious: what IC50 value has been reported for O=C(Nc1cnc(Oc2ccc(-c3cnn4ccc(N5CCC5)nc34)cc2)nc1)Nc1cc(C(F)(F)F)ccc1-c1cccnc1 ?
output: 0.001

Data credit: patent US9463192B2
